The values you see were collected from patent US12180193B2.

# testedSystem: BRAF V600E (Homo sapiens, UniProt P15056, V600E)
# Construct: expressed in transfected cells
# Sequence (P15056 whole entry V600E): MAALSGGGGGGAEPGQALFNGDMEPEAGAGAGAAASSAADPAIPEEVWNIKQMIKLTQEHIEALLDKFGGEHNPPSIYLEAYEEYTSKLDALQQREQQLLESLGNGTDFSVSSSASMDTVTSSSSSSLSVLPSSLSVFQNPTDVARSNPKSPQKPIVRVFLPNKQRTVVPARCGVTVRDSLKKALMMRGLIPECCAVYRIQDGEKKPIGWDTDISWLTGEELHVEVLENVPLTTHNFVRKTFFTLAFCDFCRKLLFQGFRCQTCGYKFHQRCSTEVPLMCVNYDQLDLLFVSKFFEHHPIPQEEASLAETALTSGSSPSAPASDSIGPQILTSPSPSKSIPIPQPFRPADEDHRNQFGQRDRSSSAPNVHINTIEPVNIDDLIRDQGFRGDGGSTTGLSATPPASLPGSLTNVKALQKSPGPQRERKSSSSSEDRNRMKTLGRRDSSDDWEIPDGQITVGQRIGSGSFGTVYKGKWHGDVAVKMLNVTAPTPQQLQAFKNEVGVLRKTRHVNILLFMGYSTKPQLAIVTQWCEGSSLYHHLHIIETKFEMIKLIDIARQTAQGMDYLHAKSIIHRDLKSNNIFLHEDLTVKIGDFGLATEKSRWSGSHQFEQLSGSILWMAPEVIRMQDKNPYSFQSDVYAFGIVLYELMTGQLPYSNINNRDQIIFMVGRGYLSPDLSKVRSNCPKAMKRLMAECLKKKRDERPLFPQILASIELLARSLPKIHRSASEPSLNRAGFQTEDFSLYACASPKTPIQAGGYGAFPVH
# experimentalProtocol: Cellular assay of target protein degradation, T-Rex 293 cells stably transfected with HA-BRAF_V600E (HA immunofluorescence, high content imaging)
# Format: cell-based
# measurementParameters: maximum degradation observed, T-Rex 293 HA-BRAF V600E
observationType: Dmax

Below are worked cases with known answers.
COc1cc(CN2CCN(c3ccc(-c4cnc5[nH]cc(C(=O)c6c(F)ccc(NS(=O)(=O)N7CC[C@@H](F)C7)c6F)c5c4)cc3)CC2)cc2c1C(=O)N(C1CCC(=O)NC1=O)C2 (some centres unmarked) : > 70%
O=C1CCC(N2Cc3cc(OCCCOC4CCN(c5ccc(-c6cnc7[nH]cc(C(=O)c8c(F)ccc(NS(=O)(=O)N9CC[C@@H](F)C9)c8F)c7c6)cc5)CC4)ccc3C2=O)C(=O)N1 (some centres unmarked) : 35 to 70%
O=C1CC[C@H](N2Cc3cc(CC[C@H](O)CN4CC5(C4)CN(c4ccc(-c6cnc7[nH]cc(C(=O)c8c(F)ccc(NS(=O)(=O)N9CC[C@@H](F)C9)c8F)c7c6)cc4)C5)ccc3C2=O)C(=O)N1 : 35 to 70%
O=C1CCC(N2Cc3cc(C4CCN(C[C@@H](O)Cc5ccc(-c6cnc7[nH]cc(C(=O)c8c(F)ccc(NS(=O)(=O)N9CC[C@@H](F)C9)c8F)c7c6)cc5)CC4)ccc3C2=O)C(=O)N1 (some centres unmarked) : > 70%

Kindly consider the entry below.
Query O=C1CCC(N2Cc3cc(N4CCC(CN5CCN(c6ccc(-c7cnc8[nH]cc(C(=O)c9c(F)ccc(NS(=O)(=O)N%10CC[C@@H](F)C%10)c9F)c8c7)cn6)CC5)CC4)ccc3C2=O)C(=O)N1 (some centres unmarked) yields Dmax of 35 to 70%

---

# testedSystem: BRAF G466V (Homo sapiens, UniProt P15056, G466V)
# Construct: expressed in transfected cells
# Sequence (P15056 whole entry G466V): as the sequence (P15056 whole entry V600E) above, with G466V, E600V counted along it
# experimentalProtocol: Cellular assay of target protein degradation, T-Rex 293 cells stably transfected with HA-BRAF G466V (HA immunofluorescence, high content imaging)
# Format: cell-based
# measurementParameters: half maximal degradation, T-Rex 293 HA-BRAF G466V; read-out: BRaf G466V DC50
observationType: DC50

Record DC50 per entry; entries follow.
1. O=C1CC[C@H](NC(=O)c2ccc(N3CCC(CN4CCN(c5ccc(-c6cnc7[nH]cc(C(=O)c8c(F)ccc(NS(=O)(=O)N9CC[C@@H](F)C9)c8F)c7c6)cc5)CC4)CC3)cc2F)C(=O)N1
2. O=C1CCC(N2Cc3cc(N4CCN(CCCCCc5ccc(-c6cnc7[nH]cc(C(=O)c8c(F)ccc(NS(=O)(=O)N9CC[C@@H](F)C9)c8F)c7c6)cc5)CC4)ccc3C2=O)C(=O)N1 (stereo partly drawn)
3. O=C1CCC(N2Cc3cc(N4CCC(CN5CCN(c6ccc(-c7cnc8[nH]cc(C(=O)c9c(F)ccc(NS(=O)(=O)N%10CC[C@@H](F)C%10)c9F)c8c7)cc6)CC(F)(F)C5)CC4)ccc3C2=O)C(=O)N1 (stereo partly drawn)

["1 to 10 nM", "10 to 30 nM", "> 30 nM"]

---

# testedSystem: BRAF G466V (Homo sapiens, UniProt P15056, G466V)
# Construct: expressed in transfected cells
# experimentalProtocol: Cellular assay of target protein degradation, T-Rex 293 cells stably transfected with HA-BRAF G466V (HA immunofluorescence, high content imaging)
# Type: cell-based
# measurementParameters: maximum degradation observed, T-Rex 293 HA-BRAF G466V
Would you kindly list Dmax for each of these compounds?

N#Cc1cc(-c2cnc3[nH]cc(C(=O)c4c(F)ccc(NS(=O)(=O)N5CC[C@@H](F)C5)c4F)c3c2)ccc1N1CCC(CN2CCC(c3ccc4c(c3)CN([C@H]3CCC(=O)NC3=O)C4=O)CC2)CC1 : 35 to 70%

Record Dmax per entry; entries follow.
1. CCCS(=O)(=O)Nc1ccc(F)c(C(=O)c2c[nH]c3ncc(-c4ccc(N5CCC(CN6CCC(c7ccc8c(c7)CN(C7CCC(=O)NC7=O)C8=O)CC6)CC5)cc4)cc23)c1F (stereo not drawn)
2. O=C1CCC(N2Cc3cc(CCCCN4CCC(c5ccc(-c6cnc7[nH]cc(C(=O)c8c(F)ccc(NS(=O)(=O)N9CC[C@@H](F)C9)c8F)c7c6)cc5)CC4)ccc3C2=O)C(=O)N1 (stereo partly drawn)
3. O=C1CC[C@H](N2Cc3cc(C4CCN(CC5CCN(c6ccc(-c7cnc8[nH]cc(C(=O)c9c(F)ccc(NS(=O)(=O)N%10CCCC%10)c9F)c8c7)cc6)CC5)CC4)ccc3C2=O)C(=O)N1
4. O=C1CCC(N2Cc3cc(N4CCC(CC5CN(c6ccc(-c7cnc8[nH]cc(C(=O)c9c(F)ccc(NS(=O)(=O)N%10CC[C@@H](F)C%10)c9F)c8c7)cc6)C5)CC4)ccc3C2=O)C(=O)N1 (stereo partly drawn)
5. COc1cc(N2CC3(CN(CC4CCN(c5ccc(-c6cnc7[nH]cc(C(=O)c8c(F)ccc(NS(=O)(=O)N9CC[C@@H](F)C9)c8F)c7c6)cc5F)CC4)C3)C2)cc2c1C(=O)N(C1CCC(=O)NC1=O)C2 (stereo partly drawn)
6. O=C1CCC(N2Cc3cc(N4CCC(CN5CCN(C6(c7ccc(-c8cnc9[nH]cc(C(=O)c%10c(F)ccc(NS(=O)(=O)N%11CC[C@@H](F)C%11)c%10F)c9c8)cc7)CC6)CC5)CC4)ccc3C2=O)C(=O)N1 (stereo partly drawn)

> 70%
> 70%
> 70%
35 to 70%
> 70%
35 to 70%

Record Dmax per entry; entries follow.
1. O=C1CC[C@H](N2Cc3cc(C[C@H](O)CN4CCN(c5ccc(-c6cnc7[nH]cc(C(=O)c8c(F)ccc(NS(=O)(=O)N9CC[C@@H](F)C9)c8F)c7c6)cc5)CC4)ccc3C2=O)C(=O)N1
2. CCCS(=O)(=O)Nc1ccc(F)c(C(=O)c2c[nH]c3ncc(-c4ccc(N5CC6(CN(CC7CCN(c8cc9c(c(OC)c8)C(=O)N([C@@H]8CCC(=O)NC8=O)C9)CC7)C6)C5)cc4)cc23)c1F
3. O=C1CCC(N2Cc3cc(N4CCN(CC5CN(c6ncc(-c7cnc8[nH]cc(C(=O)c9c(F)ccc(NS(=O)(=O)N%10CC[C@@H](F)C%10)c9F)c8c7)cn6)C5)CC4)ccc3C2=O)C(=O)N1 (stereo partly drawn)
4. O=C1CCC(N2Cc3cc(N4CCC(O)(CN5CC6(C5)CN(c5ccc(-c7cnc8[nH]cc(C(=O)c9c(F)ccc(NS(=O)(=O)N%10CC[C@@H](F)C%10)c9F)c8c7)cc5)C6)CC4)ccc3C2=O)C(=O)N1 (stereo partly drawn)
5. O=C1CCC(N2Cc3cc(N4CCC(CN5CCN(c6ccc(-c7cnc8[nH]cc(C(=O)c9c(F)ccc(NS(=O)(=O)N%10CC[C@@H](F)C%10)c9F)c8c7)cc6F)CC5)CC4)ccc3C2=O)C(=O)N1 (stereo partly drawn)
6. C[C@@]12CN(CC3CCN(c4ccc5c(c4)CN([C@H]4CCC(=O)NC4=O)C5=O)CC3)C[C@@H]1CN(c1ccc(-c3cnc4[nH]cc(C(=O)c5c(F)ccc(NS(=O)(=O)N6CC[C@@H](F)C6)c5F)c4c3)cc1)C2
7. CC1(c2ccc(C3CCN(CC4CCN(c5ccc(-c6cnc7[nH]cc(C(=O)c8c(F)ccc(NS(=O)(=O)N9CC[C@@H](F)C9)c8F)c7c6)cc5)CC4)CC3)cc2F)CCC(=O)NC1=O (stereo partly drawn)
8. O=C1CC[C@H](N2Cc3cc(OC[C@@H](O)CN4CC5(C4)CN(c4ccc(-c6cnc7[nH]cc(C(=O)c8c(F)ccc(NS(=O)(=O)N9CC[C@@H](F)C9)c8F)c7c6)cc4)C5)ccc3C2=O)C(=O)N1

["> 70%", "> 70%", "> 70%", "> 70%", "35 to 70%", "35 to 70%", "35 to 70%", "> 70%"]

Record Dmax per entry; entries follow.
1. CC(C)N(C)S(=O)(=O)Nc1ccc(F)c(C(=O)c2c[nH]c3ncc(-c4ccc(N5CCC(CN6CCC(c7ccc8c(c7)CN([C@H]7CCC(=O)NC7=O)C8=O)CC6)CC5)cc4)cc23)c1F
2. CNc1cc(-c2cnc3[nH]cc(C(=O)c4c(F)ccc(NS(=O)(=O)N5CC[C@@H](F)C5)c4F)c3c2)cc(NC)c1N1CCC(CN2CCC(c3ccc4c(c3)CN([C@H]3CCC(=O)NC3=O)C4=O)CC2)CC1
3. O=C1CC[C@H](NC(=O)N2CCCc3c(N4CCN(CC5CCN(c6ccc(-c7cnc8[nH]cc(C(=O)c9c(F)ccc(NS(=O)(=O)N%10CC[C@@H](F)C%10)c9F)c8c7)cc6)CC5)CC4)ccnc32)C(=O)N1

35 to 70%
> 70%
> 70%
